System: Candida albicans
Assay: Tested for minimum inhibitory concentration against Candida albicans 124 (Candida albicans) at pH of 6.5.
Type: functional
assay metric: MIC

A selection of reference data follows.
mol_smiles=CC[C@@H](C)[C@H]1C(=O)NCC(=O)N(C)[C@@H](C(C)C)C(=O)N[C@@H](Cc2ccc(OC)cc2)C(=O)O[C@H](C)C(=O)N2CCCC[C@H]2C(=O)N(C)[C@@H](C(C)C)C(=O)N[C@@H](C(C)C)C(=O)N(C)[C@@H](CCOC(=O)CCC(=O)O)C(=O)N(C)[C@@H]([C@@H](C)CC)C(=O)N1C observed_measurement="> 100 µg/mL"
mol_smiles=CC[C@@H](C)[C@H]1C(=O)NCC(=O)N(C)[C@@H](C(C)C)C(=O)N[C@@H](Cc2ccc(OC)cc2)C(=O)O[C@H](C)C(=O)N2CCCC[C@H]2C(=O)N(C)[C@@H](C(C)C)C(=O)N[C@@H](C(C)C)C(=O)N(C)[C@@H](CC(=O)Nc2ccc(Br)cc2)C(=O)N(C)[C@@H]([C@@H](C)CC)C(=O)N1C observed_measurement="> 100 µg/mL"

Field: next compound
State the recorded MIC for this entry: CC[C@@H](C)[C@H]1C(=O)NCC(=O)N(C)[C@@H](C(C)C)C(=O)N[C@@H](Cc2ccc(OC)cc2)C(=O)O[C@H](C)C(=O)N2CCCC[C@H]2C(=O)N(C)[C@@H](C(C)C)C(=O)N[C@@H](C(C)C)C(=O)N(C)[C@@H](CCOC(=O)c2ccccc2C(=O)O)C(=O)N(C)[C@@H]([C@@H](C)CC)C(=O)N1C > 100 µg/mL
